Measured values drawn from ChEMBL document CHEMBL4665728 for this set.

assay.protocol: Cytotoxicity against mouse RAW 264.7 assessed as cell viability at 20 uM incubated for 24 hrs by MTT assay (reference value: 100%)
Type: cell-based, RAW264.7
condition.description: RAW 264.7 cells, read-out: Activity
I'd appreciate it if you could supply viability at 24 h, 20 µM values for the items below.
All answers are understood in %, so give the number only.

IN: Value lookup for viability at 24 h, 20 µM; key = `c1ccc(-c2nc(-c3ccncc3)no2)cc1`
OUT: 89

IN: Value lookup for viability at 24 h, 20 µM; key = `COc1ccc(-c2nc(-c3ccc4[nH]ccc4c3)no2)cc1`
OUT: 41.3

IN: Value lookup for viability at 24 h, 20 µM; key = `c1ccc(-c2nc(Cc3cccc4ccccc34)no2)cc1`
OUT: 92.8

IN: Value lookup for viability at 24 h, 20 µM; key = `c1ccc(Cc2noc(-c3ccccc3)n2)cc1`
OUT: 89.6

IN: Value lookup for viability at 24 h, 20 µM; key = `c1cc2cc(-c3noc(C4CCOCC4)n3)ccc2[nH]1`
OUT: 95.7

IN: Value lookup for viability at 24 h, 20 µM; key = `Fc1cccc(-c2nc(-c3ccc4[nH]ccc4c3)no2)c1`
OUT: 17.2

IN: Value lookup for viability at 24 h, 20 µM; key = `Fc1ccc(-c2nc(-c3ccc4[nH]ccc4c3)no2)cc1`
OUT: 16.8

IN: Value lookup for viability at 24 h, 20 µM; key = `c1ccc(-c2noc(-c3ccccc3)n2)cc1`
OUT: 42.1

IN: Value lookup for viability at 24 h, 20 µM; key = `c1ccc(-c2nc(-c3ccc4cc[nH]c4c3)no2)cc1`
OUT: 31

IN: Value lookup for viability at 24 h, 20 µM; key = `c1ccc(-c2nc(-c3cccc4[nH]ccc34)no2)cc1`
OUT: 64.3

IN: Value lookup for viability at 24 h, 20 µM; key = `C#Cc1ccc(-c2nc(-c3ccc4[nH]ccc4c3)no2)cc1`
OUT: 23.6

IN: Value lookup for viability at 24 h, 20 µM; key = `c1coc(-c2nc(-c3ccc4[nH]ccc4c3)no2)c1`
OUT: 99

IN: Value lookup for viability at 24 h, 20 µM; key = `Cc1ccccc1-c1nc(-c2ccc3[nH]ccc3c2)no1`
OUT: 85.3

IN: Value lookup for viability at 24 h, 20 µM; key = `Oc1ccc(-c2nc(-c3ccc4[nH]ccc4c3)no2)cc1`
OUT: 36.5

IN: Value lookup for viability at 24 h, 20 µM; key = `CSc1ccc(-c2nc(-c3ccc4[nH]ccc4c3)no2)cc1`
OUT: 22.8

IN: Value lookup for viability at 24 h, 20 µM; key = `c1ccc(-c2nc(-c3c[nH]c4ccccc34)no2)cc1`
OUT: 11.6

IN: Value lookup for viability at 24 h, 20 µM; key = `COc1cccc(-c2nc(-c3ccc4[nH]ccc4c3)no2)c1`
OUT: 88.1

IN: Value lookup for viability at 24 h, 20 µM; key = `c1ccc(-c2nc(-c3cccc4ccccc34)no2)cc1`
OUT: 90.4

IN: Value lookup for viability at 24 h, 20 µM; key = `c1ccc(-c2nc(C3CCCC3)no2)cc1`
OUT: 85.4

IN: Value lookup for viability at 24 h, 20 µM; key = `c1cc2cc(-c3noc(C4CCCCC4)n3)ccc2[nH]1`
OUT: 68.8

IN: Value lookup for viability at 24 h, 20 µM; key = `C1=CCC(c2nc(-c3ccc4[nH]ccc4c3)no2)C1`
OUT: 24.3

IN: Value lookup for viability at 24 h, 20 µM; key = `C(=C\c1noc(-c2ccccc2)n1)/c1ccccc1`
OUT: 28.2

IN: Value lookup for viability at 24 h, 20 µM; key = `c1ccc(-c2nc(Cc3cccs3)no2)cc1`
OUT: 85.2

IN: Value lookup for viability at 24 h, 20 µM; key = `Fc1ccccc1-c1nc(-c2ccc3[nH]ccc3c2)no1`
OUT: 26.4

IN: Value lookup for viability at 24 h, 20 µM; key = `COc1ccccc1-c1nc(-c2ccc3[nH]ccc3c2)no1`
OUT: 45
